Reference source: PubChem BioAssay (NCI)

- Tested on: RXF 393 renal
- ASSAY TEXT: NCI-60 one-dose screen, 48 h
- APPLIED CONDITIONS: 10 µM unless noted
The panel holds about 83,000 compounds, 20% with a hit somewhere; the sample as a whole holds those more often. Activity calls are given as the source filed them. Rule for the calls: active = growth percent below 10; inactive = the rest.
Outcome codes: active, inactive

INSERT INTO measurements (compound, tested_system, class_name) VALUES
  ('COc1cc2c(c(OC)c1OC)C(=O)CC(c1cccc(NC(=O)c3ccccc3Br)c1)O2 (centres undefined)', 'RXF 393 renal', 'inactive'),
  ('CCCCCCOC(=O)CC1=C(C)/C(=C/c2[nH]c(-c3ccc[nH]3)cc2OC)N=C1C', 'RXF 393 renal', 'active'),
  ('Cc1ccc(/C=C2\CN(C(=O)C(Cl)Cl)C/C(=C\c3ccc(C)cc3)C2=O)cc1', 'RXF 393 renal', 'active'),
  ('CCOC(=O)c1c(-c2ccc(Cl)cc2)c(C#N)c2c(C#N)c(N)nn2c1N', 'RXF 393 renal', 'inactive'),
  ('Cc1ccc(C(=O)c2ccc(CC(=O)N/N=C/c3ccc(O)cc3O)n2C)cc1', 'RXF 393 renal', 'inactive'),
  ('CCN(CC)CCCC(C)Nc1ccc2cc(OC)ccc2n1 (centres undefined)', 'RXF 393 renal', 'inactive'),
  ('CCn1cc(C2=C(c3cn(C)c4ncccc34)C(=O)NC2=O)c2cccnc21', 'RXF 393 renal', 'inactive'),
  ('O=c1[nH]c(-c2ccc(Cl)cc2)cn1-c1ccc(-n2cc(-c3ccc(Cl)cc3)[nH]c2=O)cc1', 'RXF 393 renal', 'inactive'),
  ('CN1CCN(c2ccc(NC(=O)c3cncnc3Nc3ccc4c(ccn4Cc4cccc(F)c4)c3)cc2)CC1', 'RXF 393 renal', 'inactive');
